Let's look at some binders and their measured IC50.
Target: T1, Elastase from human neutrophils (human, UniProt P08246 30-247, limits assumed)
T1 sequence (looked up): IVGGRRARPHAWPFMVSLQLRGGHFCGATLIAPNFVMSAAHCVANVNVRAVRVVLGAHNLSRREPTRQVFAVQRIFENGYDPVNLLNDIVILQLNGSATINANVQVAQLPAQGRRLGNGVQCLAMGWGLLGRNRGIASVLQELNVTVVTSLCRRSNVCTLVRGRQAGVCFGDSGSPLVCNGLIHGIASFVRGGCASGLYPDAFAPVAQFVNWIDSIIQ
Test: cell-based or functional assay

XCTASXPPQCY (HELM PEPTIDE1{[Nle].C.T.A.S.[CCCCCC[C@H](N[*:1])C(=O)[*:2]].P.P.Q.C.Y.[dP].P}$PEPTIDE1,PEPTIDE1,2:R3-10:R3|PEPTIDE1,PEPTIDE1,1:R1-13:R2$$$V2.0; SMILES CCCCCC[C@@H]1NC(=O)[C@H](CO)NC(=O)[C@H](C)NC(=O)[C@H]([C@@H](C)O)NC(=O)[C@@H]2CSSC[C@H](NC(=O)[C@H](CCC(N)=O)NC(=O)[C@@H]3CCCN3C(=O)[C@@H]3CCCN3C1=O)C(=O)N[C@@H](Cc1ccc(O)cc1)C(=O)N1CCC[C@@H]1C(=O)N1CCC[C@H]1C(=O)N[C@@H](CCCC)C(=O)N2) [Example 80]; 35 nmol

Ask | What IC50 value was documented for this binder, FCTKSDPPXCS (HELM PEPTIDE1{F.C.T.K.S.D.P.P.[Nle].C.S.[dP].P}$PEPTIDE1,PEPTIDE1,2:R3-10:R3|PEPTIDE1,PEPTIDE1,1:R1-13:R2$$$V2.0; SMILES CCCC[C@@H]1NC(=O)[C@@H]2CCCN2C(=O)[C@@H]2CCCN2C(=O)[C@H](CC(=O)O)NC(=O)[C@H](CO)NC(=O)[C@H](CCCCN)NC(=O)[C@H]([C@@H](C)O)NC(=O)[C@@H]2CSSC[C@H](NC1=O)C(=O)N[C@@H](CO)C(=O)N1CCC[C@@H]1C(=O)N1CCC[C@H]1C(=O)N[C@@H](Cc1ccccc1)C(=O)N2) [Example 53] ?
Reply | > 100000 nmol

Ask | XCTKSDPPICY (HELM PEPTIDE1{[Nle].C.T.K.S.D.P.P.I.C.Y.[dP].P}$PEPTIDE1,PEPTIDE1,2:R3-10:R3|PEPTIDE1,PEPTIDE1,1:R1-13:R2$$$V2.0; SMILES CCCC[C@@H]1NC(=O)[C@@H]2CCCN2C(=O)[C@H]2CCCN2C(=O)[C@H](Cc2ccc(O)cc2)NC(=O)[C@@H]2CSSC[C@H](NC1=O)C(=O)N[C@@H]([C@@H](C)O)C(=O)N[C@@H](CCCCN)C(=O)N[C@@H](CO)C(=O)N[C@@H](CC(=O)O)C(=O)N1CCC[C@H]1C(=O)N1CCC[C@H]1C(=O)N[C@@H]([C@@H](C)CC)C(=O)N2) [Example 44] , same question.
Reply | > 10000 nmol

Ask | Further, for FCTKSDPPICS (HELM PEPTIDE1{F.C.T.K.S.D.P.P.I.C.S.[dA].P}$PEPTIDE1,PEPTIDE1,2:R3-10:R3|PEPTIDE1,PEPTIDE1,1:R1-13:R2$$$V2.0; SMILES CC[C@H](C)[C@@H]1NC(=O)[C@@H]2CCCN2C(=O)[C@@H]2CCCN2C(=O)[C@H](CC(=O)O)NC(=O)[C@H](CO)NC(=O)[C@H](CCCCN)NC(=O)[C@H]([C@@H](C)O)NC(=O)[C@@H]2CSSC[C@H](NC1=O)C(=O)N[C@@H](CO)C(=O)N[C@H](C)C(=O)N1CCC[C@H]1C(=O)N[C@@H](Cc1ccccc1)C(=O)N2) [Example 49] ?
Reply | > 10000 nmol

Ask | Same question, FCTXSDPPICY (HELM PEPTIDE1{F.C.T.[Nle].S.D.P.P.I.C.Y.[dP].P}$PEPTIDE1,PEPTIDE1,2:R3-10:R3|PEPTIDE1,PEPTIDE1,1:R1-13:R2$$$V2.0; SMILES CCCC[C@@H]1NC(=O)[C@H]([C@@H](C)O)NC(=O)[C@@H]2CSSC[C@H](NC(=O)[C@H]([C@@H](C)CC)NC(=O)[C@@H]3CCCN3C(=O)[C@@H]3CCCN3C(=O)[C@H](CC(=O)O)NC(=O)[C@H](CO)NC1=O)C(=O)N[C@@H](Cc1ccc(O)cc1)C(=O)N1CCC[C@@H]1C(=O)N1CCC[C@H]1C(=O)N[C@@H](Cc1ccccc1)C(=O)N2) [Example 23] this time
Reply | > 100000 nmol

Ask | And the next one, XCTASXPPQCY (HELM PEPTIDE1{[Nle].C.T.A.S.[CCCCCCCC[C@H](N[*:1])C(=O)[*:2]].P.P.Q.C.Y.[dP].P}$PEPTIDE1,PEPTIDE1,2:R3-10:R3|PEPTIDE1,PEPTIDE1,1:R1-13:R2$$$V2.0; SMILES CCCCCCCC[C@@H]1NC(=O)[C@H](CO)NC(=O)[C@H](C)NC(=O)[C@H]([C@@H](C)O)NC(=O)[C@@H]2CSSC[C@H](NC(=O)[C@H](CCC(N)=O)NC(=O)[C@@H]3CCCN3C(=O)[C@@H]3CCCN3C1=O)C(=O)N[C@@H](Cc1ccc(O)cc1)C(=O)N1CCC[C@@H]1C(=O)N1CCC[C@H]1C(=O)N[C@@H](CCCC)C(=O)N2) [Example 81] ?
Reply | 28 nmol

Ask | Could you do the same for ICTKSDPPYCR (HELM PEPTIDE1{I.C.T.K.S.D.P.P.Y.C.R.[dP].P}$PEPTIDE1,PEPTIDE1,2:R3-10:R3|PEPTIDE1,PEPTIDE1,1:R1-13:R2$$$V2.0; SMILES CC[C@H](C)[C@@H]1NC(=O)[C@@H]2CCCN2C(=O)[C@H]2CCCN2C(=O)[C@H](CCCNC(=N)N)NC(=O)[C@@H]2CSSC[C@H](NC1=O)C(=O)N[C@@H]([C@@H](C)O)C(=O)N[C@@H](CCCCN)C(=O)N[C@@H](CO)C(=O)N[C@@H](CC(=O)O)C(=O)N1CCC[C@H]1C(=O)N1CCC[C@H]1C(=O)N[C@@H](Cc1ccc(O)cc1)C(=O)N2) [Example 56] , please?
Reply | > 100000 nmol
